These measurements were taken from PubChem BioAssay (NCI).

TGI by entry:
System: LOX IMVI melanoma
test protocol: NCI tumour cell line growth inhibition, 48 h

{"compound": "C=Cc1c(C)c(O)cc2c1-c1ccc(O)c(C)c1CC2", "target": "LOX IMVI melanoma", "limit sign": "=", "TGI, µM": 31.8}
{"compound": "COc1nc2c(nc(N)n2C2OC(CO)C(O)C(O)C2O)c(=O)[nH]1 (stereo not given)", "target": "LOX IMVI melanoma", "limit sign": ">", "TGI, µM": 100}
{"compound": "CC(C)(C)C(=O)OCCNc1nc(-c2ccccc2)nc2ccccc12", "target": "LOX IMVI melanoma", "limit sign": "=", "TGI, µM": 22}
{"compound": "C=C1C(=O)O[C@@H]2[C@@H]3O[C@@H](C[C@@H]13)[C@](C)(O)CC/C=C(\\C)CCC[C@H]2C", "target": "LOX IMVI melanoma", "limit sign": "=", "TGI, µM": 3}
{"compound": "Oc1ccc(C=NCC2CCCN3CCCCC23)cc1 (stereo not given)", "target": "LOX IMVI melanoma", "limit sign": ">", "TGI, µM": 100}
